# melting point listing for each entry below

Field: example entries. Status: answers known.
O=C1NC=C(C(=O)c2ccc(N3CCCCC3)cc2)C(c2ccc(Cl)cc2)N1 (centres unmarked) [Compound N-5]; 230 to 232 °C
O=C1NC=C(C(=O)c2ccc(N3CCCCC3)cc2)C(c2cccc([N+](=O)[O-])c2)N1 (centres unmarked) [Compound N-4]; 185 to 187 °C
CCOc1ccc(C2NC(=O)NC=C2C(=O)c2ccc(N3CCCCC3)cc2)cc1 (centres unmarked) [Compound N-13]; 200 to 202 °C
COc1ccc(C2NC(=O)NC=C2C(=O)c2ccc(N3CCCCC3)cc2)cc1OC (centres unmarked) [Compound N-7]; 145 to 147 °C
O=C1NC=C(C(=O)c2ccc(N3CCCCC3)cc2)C(c2ccc(O)cc2)N1 (centres unmarked) [Compound N-9]; 210 to 212 °C
COc1cc(OC)c(C2NC(=O)NC=C2C(=O)c2ccc(N3CCCCC3)cc2)cc1OC (centres unmarked) [Compound N-14]; 155 to 157 °C
COc1cccc(C2NC(=O)NC=C2C(=O)c2ccc(N3CCCCC3)cc2)c1 (centres unmarked) [Compound N-12]; 160 to 162 °C
O=C1NC=C(C(=O)c2ccc(N3CCCCC3)cc2)C(c2cccc(O)c2)N1 (centres unmarked) [Compound N-10]; 190 to 192 °C
O=C1NC=C(C(=O)c2ccc(N3CCCCC3)cc2)C(c2ccc(Cl)cc2Cl)N1 (centres unmarked) [Compound N-6]; 195 to 197 °C
O=C1NC=C(C(=O)c2ccc(N3CCCCC3)cc2)C(c2ccccc2)N1 (centres unmarked) [Compound N-1]; 220 to 222 °C

Let's switch to this compound now.
Entry CN(C)c1ccc(C2NC(=O)NC=C2C(=O)c2ccc(N3CCCCC3)cc2)cc1 (centres unmarked) [Compound N-11] : reported melting point = ?
185 to 187 °C

---

Tested on: gastric mucosal non-protein sulfhydryls, induced by 80% ethanol
Experiment: Estimation of non-protein sulfhydryls (NP-SH)
Assay type: in vivo, Albino Wistar rats
Details: dose 25; stomach tissue, 80% ethanol-treated rats; mean ± SE
Marks after values point to notes of the source that are not given here.
recorded_endpoint: NP-SH

COc1ccc(C2NC(=O)NC=C2C(=O)c2ccc(N3CCCCC3)cc2)c(OC)c1OC (stereo not shown) [Compound N-15]; 4.29 ± 0.24**^b nmol/g

Entry CN(C)c1ccc(C2NC(=O)NC=C2C(=O)c2ccc(N3CCCCC3)cc2)cc1 (stereo not shown) [Compound N-11] : reported NP-SH = ?
3.40 ± 0.18^b nmol/g

Entry to check: COc1ccccc1C1NC(=O)NC=C1C(=O)c1ccc(N2CCCCC2)cc1 (stereo not shown) [Compound N-8]
3.61 ± 0.12^b nmol/g

Entry to check: O=C1NC=C(C(=O)c2ccc(N3CCCCC3)cc2)C(c2ccc([N+](=O)[O-])cc2)N1 (stereo not shown) [Compound N-3]
4.23 ± 0.23**^b nmol/g

---

Tested on: Gastric lesions induced by necrotizing agents (80% ethanol, 0.2 mol/L NaOH or 25% NaCl)
Experiment: Gastric lesions induced by necrotizing agents (cytoprotection)
Format: in vivo, Albino Wistar rats
Conditions: 12.5 mg/kg, i.p; 30 min before necrotizing agent; mean ± SE
recorded_endpoint: Ulcer Index, 0.2 mol/L NaOH

Field: example entries. Status: answers known.
CN(C)c1ccc(C2NC(=O)NC=C2C(=O)c2ccc(N3CCCCC3)cc2)cc1 (stereo not shown) [Compound N-11]; 6.33 ± 0.42
O=C1NC=C(C(=O)c2ccc(N3CCCCC3)cc2)C(c2ccc([N+](=O)[O-])cc2)N1 (stereo not shown) [Compound N-3]; 4.50 ± 0.22.***
COc1ccc(C2NC(=O)NC=C2C(=O)c2ccc(N3CCCCC3)cc2)c(OC)c1OC (stereo not shown) [Compound N-15]; 3.50 ± 0.22

Let's switch to this compound now.
Entry COc1ccccc1C1NC(=O)NC=C1C(=O)c1ccc(N2CCCCC2)cc1 (stereo not shown) [Compound N-8] : reported Ulcer Index, 0.2 mol/L NaOH = ?
6.66 ± 0.33
